assay: Acute toxicity, mouse; settings: in vivo, iv, read-out: Dose administered (mouse), intravenously, DE 50
recorded-metric: LD50 (mg/kg)

{"chemical-smiles": "O=C(CCn1c(CN2CCN(CC=Cc3ccccc3)CC2)nc2ccccc21)c1ccco1", "recorded-metric": "LD50", "measured-result": 48}

====

experiment: Acute toxicity, mouse; conditions: in vivo, po, 4800 mg/kg, p.o., 4 800 mg/kg, read-out: Acute toxicity (p.o.), percentage mortality

{"compound": "O=C(CCn1c(CN2CCN(CC=Cc3ccccc3)CC2)nc2ccccc21)c1ccccc1 [7 110, reference compound]", "mortality (%)": 30}
